Values compiled from ChEMBL document CHEMBL5506029.

# test: Volume of distribution at steady state in mouse at iv administration
# Type: ADME, organism-based
# condition_context: in vivo, read-out: Vdss
outcome_measure: Vd (L/kg)
Number in L/kg, nothing else.

Item CC(C)Oc1nc2nc(C34COC(C)(C3)C4)cn2cc1C(=O)Nc1cccn(C2CC2)c1=O : provide Vd
1.5

---

# test: Clearance in Cynomolgus monkey at iv administration
# Type: ADME, organism-based, Macaca fascicularis
# condition_context: in vivo
outcome_measure: clearance

Item CC(C)Oc1nc2nc(C34COC(C)(C3)C4)cn2cc1C(=O)Nc1cccn(C2CC2)c1=O : provide clearance
15.1 mL/min/kg

---

# test: Unbound clearance in rat plasma at iv dosed for 4 to 24 hrs by LC-MS/MS analysis
# Assay type: ADME, organism-based
# condition_context: in vivo, time 4-24 hrs
outcome_measure: CL free (mL/min/kg)
Number in mL/min/kg, nothing else.

Examples with answers:
molecule	CL free [mL/min/kg]
CC(C)Oc1nc2nc(C34CCC(C)(C3)OC4)cn2cc1C(=O)Nc1cccn([C@H]2C[C@H]2F)c1=O (single isomer, unassigned)	306
COC[C@@]12CC[C@@](c3cn4cc(C(=O)Nc5cccn([C@H]6C[C@H]6F)c5=O)c(OC(C)C)nc4n3)(CO1)C2	312
COC[C@@]12CC[C@@](c3cn4cc(C(=O)Nc5cccn(C6CC6)c5=O)c(OC(C)C)nc4n3)(CO1)C2	281

Item COCC12CC(c3cn4cc(C(=O)Nc5cccn(C6CC6)c5=O)c(OC(C)C)nc4n3)(CO1)C2 : provide CL free
170

Item CC(C)Oc1nc2nc(C34COC(CF)(C3)C4)cn2cc1C(=O)Nc1cccn(C2CC2)c1=O : provide CL free
51

Item CC(C)Oc1nc2nc([C@@]34CC[C@@](C)(C3)OC4)cn2cc1C(=O)Nc1cccn(C2CC2)c1=O (single isomer, unassigned) : provide CL free
310

Item CC(C)Oc1nc2nc(C34COC(C3)C4)cn2cc1C(=O)Nc1cccn(C2CC2)c1=O : provide CL free
88

---

# test: Intrinsic clearance in human liver microsomes
# Type: ADME, Microsome
# condition_context: read-out: CLH
outcome_measure: CLint scaled

Item CC(C)Oc1nc2nc(C34COC(C)(C3)C4)cn2cc1C(=O)Nc1cccn(C2CC2)c1=O : provide CLint scaled
< 5 mL/min/kg

---

# test: Tmax in po dosed dog
# Format: ADME, organism-based, Canis lupus familiaris
# condition_context: in vivo
outcome_measure: Tmax (min)
Number in min, nothing else.

Item CC(C)Oc1nc2nc(C34COC(C)(C3)C4)cn2cc1C(=O)Nc1cccn(C2CC2)c1=O : provide Tmax
36
